Let's look at some compounds and their measured IC50.
molecular target: hACMSD (Homo sapiens, UniProt Q8TDX5)
Sequence (Q8TDX5 whole entry): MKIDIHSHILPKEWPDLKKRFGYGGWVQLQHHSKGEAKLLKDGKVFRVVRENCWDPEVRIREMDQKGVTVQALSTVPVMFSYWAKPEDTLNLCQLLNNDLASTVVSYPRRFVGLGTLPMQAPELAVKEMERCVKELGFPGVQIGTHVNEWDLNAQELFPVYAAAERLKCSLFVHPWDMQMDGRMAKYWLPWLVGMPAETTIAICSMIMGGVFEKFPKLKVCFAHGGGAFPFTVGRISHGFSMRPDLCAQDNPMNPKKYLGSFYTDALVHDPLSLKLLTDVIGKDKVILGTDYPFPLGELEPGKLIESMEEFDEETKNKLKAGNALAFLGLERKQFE

Some solved entries appear below for comparison.
{"columns": ["COMPOUND", "ASSAY READOUT", "MEASURED RESULT"],
 "data": [
  ["CCOc1cc(/C=C/c2[nH]c(=O)[nH]c(=O)c2[N+](=O)[O-])ccc1OCC(=O)O [I-17]", "IC50", "1000 to 2000 nM"],
  ["COc1cccc(/C=C/c2nc(SC)[nH]c(=O)c2C#N)c1OCC(=O)O [I-15]", "IC50", "100 to 1000 nM"]
]}

Now look at this one.
Which IC50 is listed for COc1cccc(/C=C/c2[nH]c(=S)[nH]c(=O)c2C#N)c1OC(C)(C)C(=O)O [I-8] ?
100 to 1000 nM
